# ASSAY_EXPLANATION: folding stability dG unfold from trypsin proteolysis; higher = more stable
Please use y whenever folding stability dG unfold is not below 2 kcal/mol, and n whenever it is.

Answered examples (5):
SAGGSAGGSVIPYFDENAVALLVKGPGDYYRIIFKPNDGYLVLLLPKEVIKSKPIPIGELLKKSAGGSAGGS [r20_90_TrMRF]: n
SAGGSAEELAKELAEKEGVKEVKVTVIKNKNGKLVLKVENKETNKTYEIELPEGAEVVEEITLKVKSAGGSA [r2_74_TrROS_Hall]: n
SAGYWEFEIELPNGRKIEIEWQRMNGRYWFKIEVLDDNGKPVREVPIPFPNPEMPFEQMIKNAVKKILDSAG [r5_630_TrROS]: y
SAGGSAGGSAGDDNKKKPKPKIEIQPVRMTMPFPENGLRIEIDIWVIKDGNIIFMIEWYPSAGGSAGGSAGG [r11_463_TrROS]: y
SAGGSAGGSAKKKKKKFKIVKIEIEVEVVKDKKTNKYYVKVKIKIYLKGNKKEFEMEFVFPSAGGSAGGSAG [r3_424_TrROS_Hall]: y

*Q* Check the entry SAGGMPVTVTIVVPPGTERELAEELAEKYAKEGADVEFEERPGGLVLTMTLPGGEVVTMEIRDPAQASAGGS [r16_406_JUSTAS] : does folding stability dG unfold equal or exceed 2 kcal/mol?
*A* y

*Q* Check the entry SAEELAEAEARRLGVDPAAVALEVTEEVDPLTGKPRKIVTVTIALPDRAYVITVDASDGTVLERRPLEAASA [r9_1219_JUSTAS] : does folding stability dG unfold equal or exceed 2 kcal/mol?
*A* y

*Q* Check the entry SAGLEVVKKLAEELGFPVEILRVEYDPETGELTFEAVARPKDGKTRRVRIRIRVPKESDEVEIELEYFDSAG [r5_929_TrMRF] : does folding stability dG unfold equal or exceed 2 kcal/mol?
*A* y

*Q* Check the entry SAGGMKITITYDKETKTITVKITYPDGTTEELTIEVPPEKKTPEEIAEELKKLIEERFGKKVEIEIVSAGGS [r8_166_TrROS_Hall] : does folding stability dG unfold equal or exceed 2 kcal/mol?
*A* y

*Q* Check the entry KTIMIWFPFKSWEDVRNLIRDLARELNLPPGRDVDVKVERHPNNGYFRVTVTVSNPNGEKIDITIWFPMWDS [r1_84_TrROS] : does folding stability dG unfold equal or exceed 2 kcal/mol?
*A* y

*Q* Check the entry SAGGSAGGMEKYKVTITIERPDPNNPDVKTTEVTEVVLTPEEIEKLKKELAPTGYRVEITVIDESAGGSAGG [r6_857_JUSTAS] : does folding stability dG unfold equal or exceed 2 kcal/mol?
*A* y

*Q* Check the entry SAGGSAGGSAGAPPDVEEVTVTVTITNPDGSTTTTTVTATPEELAALAAAPGRPTAVSAESAGGSAGGSAGG [r17_313_JUSTAS] : does folding stability dG unfold equal or exceed 2 kcal/mol?
*A* n

###

# ASSAY_EXPLANATION: folding stability dG unfold from chymotrypsin proteolysis; higher = more stable
RECORDED_ENDPOINT: folding stability dG unfold
# number then unit; no other words

Illustrative cases are given below, each with its answer.
SAGGSAGGSAGGMPVLVNIELPIPGTNETLTLEVEAEGPGGEEVEKEAQETAEKVLEESSAGGSAGGSAGGS [r10_863_JUSTAS]: 1.79 kcal/mol
SAGGMKTLRLVVTVKVPKETGKPTVAEKLAEELAKLPGVEVVKVEVKRLENGTVVVTIEIKVPKELKPSAGG [r13_428_TrROS_Hall]: 3.36 kcal/mol
SMTIERHPDKLTVRVPAAFSTVPEVVRFLKELGFELPPGVKDVRVEDVEPGARVVRVTVHFDDPEALERLSA [r9_820_TrMRF]: 1.58 kcal/mol
SAGGSAGGSAGKKKGKKPKKIKVKKIKLIVKDKETNEYYEKEITVNKDGTLTIKVKKLKKSAGGSAGGSAGG [r11_883_TrROS_Hall]: 3.07 kcal/mol
SAGGSAGGSAGGGSITITFKHPDGGEVTIEITPPEPTVRVTVTLPNGEKLEYEFDFVPASAGGSAGGSAGGS [r10_595_TrMRF]: 3.68 kcal/mol

*Q* What value of folding stability dG unfold has been reported for the following sequence? SAGSSISSISRSPVSTEEDPSTNVRRTTYLEKYPGPPNLLKEVTVTTTFAPDGTPTVTPAVTTLSPALLSAG [r5_48_JUSTAS]
*A* -0.899 kcal/mol

*Q* What value of folding stability dG unfold has been reported for the following sequence? SAGGMTEVSVSEELRAEGGGLERVLVVTITTVTKVYPVGSSNKVEYEESTIVIPADDPAALEAAGVLLSAGG [r13_670_JUSTAS]
*A* -0.319 kcal/mol
